tested on: HCT-116 colon; experiment: NCI tumour cell line growth inhibition, 48 h
readout-kind: TGI

{"columns": ["molecule", "readout-kind", "result"],
 "data": [
  ["CN(/C(=N\\O)c1ccccc1)c1ccccc1", "TGI", "> 100 µM"],
  ["CC1(C)N=C(/C(C#N)=[N+](/[O-])C(=O)c2ccccc2)C(C)(C)N1O", "TGI", "> 100 µM"],
  ["CCOC(=O)c1ccc2c(=O)n3c(C(=O)OCC)ccc3c(=O)n12", "TGI", "> 100 µM"],
  ["COC(=O)c1cccc2c1Oc1ccccc1S2", "TGI", "> 100 µM"],
  ["Cc1ccc(C(=O)NC(C)C)cc1N=NN(C)C", "TGI", "> 100 µM"],
  ["CC1=NN(c2cccc(Cl)c2)C2(C1)SCC(=O)N2c1nc2ccccc2s1 (centres undefined)", "TGI", "36.7 µM"],
  ["COc1ccc(-c2c(C(C)=O)c(-c3ccccc3)n(C3OC(COC(C)=O)C(OC(C)=O)C(OC(C)=O)C3OC(C)=O)c(=S)c2C#N)cc1O (centres undefined)", "TGI", "> 100 µM"],
  ["Clc1ccc2c(NCCN3CCN(c4ccnc(N5CCCC5)n4)CC3)ccnc2c1", "TGI", "10.4 µM"],
  ["C=CC1=C(C)C(Cc2[nH]c(/C=c3\\[nH]/c(=C/C4=NC(=O)C(C)/C4=C\\C)c(C)c3CCC(=O)O)c(CCC(=O)OC)c2C)NC1=O (centres undefined)", "TGI", "36.9 µM"]
]}

###

Form field: TGI (one value per entry).
tested on: RPMI-8226 leukemia; assay: NCI tumour cell line growth inhibition, 48 h
readout-kind: TGI

{"columns": ["molecule", "readout-kind", "result"],
 "data": [
  ["COc1cc(/C=N/O)nc(-c2ccccn2)c1", "TGI", "> 100 µM"],
  ["NC(=O)N/N=C1/CCCC/C1=C\\c1ccccc1", "TGI", "> 100 µM"],
  ["CO[C@H]1/C=C/C[C@H](C)[C@@H](C)S(=O)(=O)NC(=O)c2ccc3c(c2)N(C[C@@H]2CC[C@H]21)C[C@@]1(CCCc2cc(Cl)ccc21)CO3", "TGI", "0.534 µM"],
  ["Cc1cc(C)c(N)c(C)c1N", "TGI", "> 100 µM"],
  ["Cc1sc2c(c1C)C(c1ccc(Cl)cc1)=N[C@@H](CC(=O)Nc1ccc(O)cc1)c1nnc(C)n1-2", "TGI", "11.8 µM"],
  ["COC(=O)C(C(=O)C(=O)Nc1ccc(C)cc1C)c1nc2ccc([N+](=O)[O-])cc2[nH]c1=O (stereo unspecified)", "TGI", "> 100 µM"],
  ["O=C(O)c1ccc(/C=N\\N(CCO)C2=NCCN2)cc1", "TGI", "> 100 µM"],
  ["CCN1CCC(O)(c2ccc(Cl)c(Cl)c2)C(C(=O)c2ccc(Cl)c(Cl)c2)C1 (stereo unspecified)", "TGI", "5.72 µM"],
  ["Cc1ccc(-c2nc3n(c2/C=N\\N=C(N)N)CCS3)cc1", "TGI", "68.8 µM"],
  ["O=C(O)C1=C(Cl)c2ccccc2S1(=O)=O", "TGI", "> 100 µM"],
  ["O=C1C(Cl)=C(Nc2ccc3c(c2NC2=C(Cl)C(=O)c4ccccc4C2=O)C(=O)c2ccccc2C3=O)C(=O)c2ccccc21", "TGI", "9.37 µM"],
  ["CC(=O)NNc1nc(C)c(C(/C=C/c2ccc(Cl)cc2)=N/NC(=S)NN)s1", "TGI", "> 100 µM"],
  ["COc1cc(C(=C2SCCS2)c2nccc3cc(OC)c(OC)cc23)c([N+](=O)[O-])cc1OC", "TGI", "> 100 µM"],
  ["COc1cc2c(cc1-c1c(C)noc1C)ncc1[nH]c(=O)n([C@H](C)c3ccccn3)c12", "TGI", "3.54 µM"],
  ["CC1CCC(C#N)(NOC2=NCCN2)CC1 (stereo unspecified)", "TGI", "> 100 µM"],
  ["OC(C1CCCC1=N/N=C1/CCCC1C(O)(C(F)(F)Cl)C(F)(F)Cl)(C(F)(F)Cl)C(F)(F)Cl (stereo unspecified)", "TGI", "> 10 µM"],
  ["COc1cc(C(c2cc(OC)c(OC)c(OC)c2)N2C(=O)CCC2C(=O)O)cc(OC)c1OC (stereo unspecified)", "TGI", "> 100 µM"],
  ["Cn1nc2ccc3nccc(NCCNCCCl)c3c2n1", "TGI", "> 100 µM"],
  ["CCOC(=O)CCc1c(C)c2c(O)cc(O)cc2oc1=O", "TGI", "> 100 µM"],
  ["CCN1CCN(c2cc(C)nc(NCc3cc(Nc4ccnc5cc(Cl)ccc45)ccc3F)n2)CC1", "TGI", "8.72 µM"],
  ["C[N+](C)(N)Cc1csc(-c2ccc(Cl)cc2)n1", "TGI", "> 100 µM"]
]}

Origin of values: PubChem BioAssay (NCI)
